The origin of these recorded values is ChEMBL document CHEMBL4428101.

assay: AUClast in NMRI mouse plasma at 20 mg/kg, po administered as single dose through gavage measured up to 144 hrs post dose by UPLC-MS/MS analysis; format: ADME, organism-based; set-up: dose 20 mg/kg, time < 144 hr, route oral
Assay Metric: AUC(0-t) at 144 h (µg·h/mL)

Smiles Representation: O[C@H](c1cc(-c2ccc(Cl)cc2)nc2ccccc12)[C@@H]1CCCCN1
AUC(0-t) at 144 h [µg·h/mL]: 246

Smiles Representation: O[C@@H](c1cc(-c2ccc(Cl)cc2)nc2ccccc12)[C@H]1CCCCN1
AUC(0-t) at 144 h [µg·h/mL]: 183

====

assay: Half life in NMRI mouse brain at 20 mg/kg, po administered as single dose through gavage by UPLC-MS/MS analysis; assay type: ADME, organism-based
Assay Metric: half-life (h)

A: O[C@H](c1cc(-c2ccc(Cl)cc2)nc2ccccc12)[C@@H]1CCCCN1
B: O[C@@H](c1cc(-c2ccc(Cl)cc2)nc2ccccc12)[C@H]1CCCCN1
Could you please tell me which of these two has the higher half-life: A or B ? // caller expects the label of the chosen entry
B

====

test: Cytotoxicity against patient-derived U3013MG cells assessed as reduction in cell viability by Celltiter-Glo reagent based assay; format: functional; details: Homo sapiens
Assay Metric: pIC50
The meaning of pIC50 here: minus log10 of the concentration in molar units.

Kindly indicate its recorded pIC50. Item: OC(c1cc(-c2ccc(Cl)cc2)nc2ccccc12)C1CCCCN1 (stereo unspecified)
5.50

====

assay: AUClast in NMRI mouse brain at 2 mg/kg, iv administered as single dose measured after 144 hrs by UPLC-MS/MS analysis; assay type: ADME, organism-based; set-up: dose 2 mg/kg, time < 144 hr, route intravenous
Assay Metric: AUC(0-t) at 144 h (ng·h/mL)

I: O[C@H](c1cc(-c2ccc(Cl)cc2)nc2ccccc12)[C@@H]1CCCCN1
II: O[C@@H](c1cc(-c2ccc(Cl)cc2)nc2ccccc12)[C@H]1CCCCN1
Could you please tell me which of these two has the higher AUC(0-t) at 144 h: I or II ? // caller expects the label of the chosen entry
I
(I: 53100 ng·h/mL, II: 12200 ng·h/mL)

====

assay: Fraction unbound in NMRI mouse plasma at 5 uM by LC-MS based equilibrium dialysis method; format: ADME, cell-free
Assay Metric: fraction unbound at 5 µM

A: O[C@H](c1cc(-c2ccc(Cl)cc2)nc2ccccc12)[C@@H]1CCCCN1
B: O[C@@H](c1cc(-c2ccc(Cl)cc2)nc2ccccc12)[C@H]1CCCCN1
Could you please tell me which of these two has the higher fraction unbound at 5 µM: A or B ? // caller expects the label of the chosen entry
A

====

experiment: AUClast in NMRI mouse plasma at 2 mg/kg, iv administered as single dose measured up to 144 hrs post dose by UPLC-MS/MS analysis; assay type: ADME, organism-based; parameters: time < 144 hr, dose 2 mg/kg, route intravenous
Assay Metric: AUC(0-t) at 144 h (ng·h/mL)

P: O[C@H](c1cc(-c2ccc(Cl)cc2)nc2ccccc12)[C@@H]1CCCCN1
Q: O[C@@H](c1cc(-c2ccc(Cl)cc2)nc2ccccc12)[C@H]1CCCCN1
Quick one: lower AUC(0-t) at 144 h, P or Q ? // caller expects the label of the chosen entry
Q
